These entries and their values trace back to paper PMC5263201.

Method Summary: Plasma pharmacokinetics after single oral doses in the PET studies
Assay type: in vivo, human
Assay Setup: AZD7325 single oral dose 20 mg; individual subjects; read-out: C max
Measure Name: Cmax (nM)
# number only, unit nM dropped from output

Given the compound CCCNC(=O)c1nnc2c(-c3c(F)cccc3OC)cccc2c1N [AZD7325] , write its reported Cmax.
302

----------
Method Summary: Binding to human plasma proteins
Assay type: in vitro ADME
Assay Setup: read-out: unbound fraction of the total plasma drug
Measure Name: fraction unbound

Look up and report measured fraction unbound for this entry: CCCNC(=O)c1nnc2c(-c3cc(OC)ccc3OC)cccc2c1N [AZD6280]
~0.1

----------
Method Summary: Plasma pharmacokinetics after single oral doses in the PET studies
Assay type: in vivo, human
Assay Setup: human, plasma, po, 1 mg, AZD7325 single oral dose 1 mg; individual subjects
Measure Name: Tmax (h)
// return numeric value only (unit: h, not printed)

Please look at this molecule and report its Tmax: CCCNC(=O)c1nnc2c(-c3c(F)cccc3OC)cccc2c1N
1.8
